These entries and their values trace back to patent US11555012B2.

Would you mind telling me the reported IC50 of each entry?
tested.target: ACL (Homo sapiens (Human), UniProt P53396)
Sequence (P53396 other isoform, or with tags, fused parts or gaps isoform P53396-2): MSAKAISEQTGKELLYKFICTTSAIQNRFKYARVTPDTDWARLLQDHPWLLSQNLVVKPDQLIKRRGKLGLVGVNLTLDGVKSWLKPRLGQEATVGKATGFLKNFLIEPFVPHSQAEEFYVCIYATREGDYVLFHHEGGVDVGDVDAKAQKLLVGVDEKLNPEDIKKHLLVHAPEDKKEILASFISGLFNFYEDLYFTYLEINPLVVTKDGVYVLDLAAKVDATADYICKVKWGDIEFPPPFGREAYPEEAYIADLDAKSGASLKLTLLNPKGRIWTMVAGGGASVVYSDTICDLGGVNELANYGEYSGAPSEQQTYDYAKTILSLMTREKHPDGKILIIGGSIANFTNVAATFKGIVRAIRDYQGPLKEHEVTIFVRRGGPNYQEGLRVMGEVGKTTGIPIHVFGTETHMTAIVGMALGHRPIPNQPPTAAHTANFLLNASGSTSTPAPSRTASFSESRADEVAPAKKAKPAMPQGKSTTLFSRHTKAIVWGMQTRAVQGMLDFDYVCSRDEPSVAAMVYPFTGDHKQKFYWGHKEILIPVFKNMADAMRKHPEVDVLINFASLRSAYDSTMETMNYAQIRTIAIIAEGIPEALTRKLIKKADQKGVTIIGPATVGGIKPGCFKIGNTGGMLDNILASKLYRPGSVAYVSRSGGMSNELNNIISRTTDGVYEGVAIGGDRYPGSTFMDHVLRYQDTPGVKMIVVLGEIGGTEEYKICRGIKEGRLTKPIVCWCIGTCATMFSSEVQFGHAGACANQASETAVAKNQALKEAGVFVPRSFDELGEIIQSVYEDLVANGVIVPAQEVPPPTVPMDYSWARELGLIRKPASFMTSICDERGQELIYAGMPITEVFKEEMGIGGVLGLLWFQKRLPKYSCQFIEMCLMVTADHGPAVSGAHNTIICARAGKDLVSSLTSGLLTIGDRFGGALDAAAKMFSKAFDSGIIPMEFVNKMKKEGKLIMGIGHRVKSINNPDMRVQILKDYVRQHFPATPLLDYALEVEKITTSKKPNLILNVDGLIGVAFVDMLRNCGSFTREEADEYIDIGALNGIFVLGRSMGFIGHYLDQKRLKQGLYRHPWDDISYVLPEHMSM
procedure.summary: ADP-Glo Assay

Value of measured IC50 for the entry COc1ccc(-c2ccccc2)cc1NS(=O)(=O)c1cc(CC(=O)O)cc(Cl)c1O [I-68] : 500 to 20000 nM

Value of measured IC50 for the entry N#Cc1cc(Cl)cc(S(=O)(=O)Nc2cc(-c3ccccc3)c(F)cc2F)c1 [I-75] : 500 to 20000 nM

Value of measured IC50 for the entry O=C(O)COc1ccc(-c2ccccc2)cc1NS(=O)(=O)c1cc(Cl)cc(Cl)c1O [I-212] : 50 to 500 nM

Value of measured IC50 for the entry COc1ccc(C(=O)O)cc1NS(=O)(=O)c1cc(Cl)cc(Cl)c1O [I-404] : > 20000 nM

Value of measured IC50 for the entry O=C(O)c1ccc(-c2ccccc2)cc1NS(=O)(=O)c1cc(Br)cc2c1OCCNC2=O [I-359] : 500 to 20000 nM

Value of measured IC50 for the entry CC(C)(Oc1ccc(-c2ccccc2)cc1NS(=O)(=O)c1cc(Cl)cc(Cl)c1O)C(=O)O [I-239] : 500 to 20000 nM

Value of measured IC50 for the entry COC(=O)c1cccc(S(=O)(=O)Nc2cc(-c3ccccc3)ccc2OC)c1 [I-421] : > 20000 nM

Value of measured IC50 for the entry COc1ccc(-c2ccc(F)cc2)cc1NS(=O)(=O)c1cc(Cl)cc(Cl)c1O [I-6] : 50 to 500 nM

Value of measured IC50 for the entry COC(=O)Cc1cc(Cl)c(O)c(S(=O)(=O)Nc2cc(-c3ccccc3)ccc2OC)c1 [I-94] : 500 to 20000 nM

Value of measured IC50 for the entry COc1ccc(-c2ccccc2)cc1NC(=O)c1cc(Cl)cc(Cl)c1O [I-18] : 500 to 20000 nM

Value of measured IC50 for the entry Cc1ccc(C(=O)O)c(NS(=O)(=O)c2cc(Cl)cc(Cl)c2)c1 [I-321] : 500 to 20000 nM

Value of measured IC50 for the entry O=C(O)c1ccc(-c2ccccc2)cc1NS(=O)(=O)c1cc(Cl)cc(Cl)c1F [I-342] : 500 to 20000 nM

Value of measured IC50 for the entry O=C(c1cc(Cl)c(O)c(S(=O)(=O)Nc2ccccc2F)c1)N1CCC1 [I-268] : 500 to 20000 nM

Value of measured IC50 for the entry O=S(=O)(Nc1cc(-n2nnnc2C2CC2)ccc1F)c1cc(Cl)cc(Cl)c1O [I-164] : 500 to 20000 nM

Value of measured IC50 for the entry O=C(O)c1ccc(-c2ccccc2)cc1NS(=O)(=O)c1ccc(-n2cccn2)c(F)c1 [I-358] : 500 to 20000 nM

Value of measured IC50 for the entry CN(C)C(=O)C(NS(=O)(=O)c1cc(Cl)cc(Cl)c1O)c1ccccc1 (stereo not drawn) [I-179] : 500 to 20000 nM

Value of measured IC50 for the entry CC(C)n1ncc2cc(NS(=O)(=O)c3cc(Cl)cc(Cl)c3O)ccc21 [I-169] : 500 to 20000 nM

Value of measured IC50 for the entry O=C(c1cc(Cl)c(O)c(S(=O)(=O)Nc2cc(-c3ccccn3)ccc2F)c1)N1CCC1 [I-206] : 50 to 500 nM

---

tested.target: ACL (Homo sapiens (Human))
procedure.summary: ADP-Glo Assay
readout.type: IC50

Value of measured IC50 for the entry O=S(=O)(Nc1cc(-c2ccccc2)ccc1F)c1cc(Cl)cc(Cl)c1F : 0.5 to 20 µM

Value of measured IC50 for the entry O=C(c1cc(Cl)cc(S(=O)(=O)Nc2cc(-c3ccccc3)c(F)cc2F)c1)N1CCC1 : > 20 µM

Value of measured IC50 for the entry O=C(O)c1cc(Cl)c(O)c(S(=O)(=O)Nc2cc(-c3ccccc3)c(F)cc2F)c1 : 0.05 to 0.5 µM

Value of measured IC50 for the entry O=C(O)c1ccc(-c2ccccc2)cc1NS(=O)(=O)c1cc(Cl)cc(C(F)(F)F)c1 : 0.05 to 0.5 µM

Value of measured IC50 for the entry CC(=O)c1cccc(S(=O)(=O)Nc2cc(-c3ccccc3)ccc2C(=O)O)c1 : 0.5 to 20 µM

Value of measured IC50 for the entry O=C(Nc1cc(C(=O)N2CCC2)cc(Cl)c1O)c1cc(-c2ccccc2)ccc1F : 0.5 to 20 µM

Value of measured IC50 for the entry CN(C)C(=O)Oc1c(Cl)cc(C(=O)N2CCC2)cc1S(=O)(=O)Nc1cc(-c2ccccc2)c(F)cc1F : 0.5 to 20 µM

Value of measured IC50 for the entry CC(=O)N1CCCN(c2ccc(F)cc2NS(=O)(=O)c2cc(Cl)cc(Cl)c2O)CC1 : 0.5 to 20 µM

Value of measured IC50 for the entry COCc1cc(Cl)cc(S(=O)(=O)Nc2cc(-c3ccccc3)ccc2C(=O)O)c1 : 0.5 to 20 µM

Value of measured IC50 for the entry O=C(O)c1cc(Cl)c(O)c(S(=O)(=O)Nc2cc(-c3ccccc3)ccc2F)c1 : 0.5 to 20 µM

Value of measured IC50 for the entry O=C(c1cc(Cl)c(O)c(S(=O)(=O)Nc2cc(-c3ccccc3)c(F)cc2F)c1)N1CCOCC1 : 0.5 to 20 µM

Value of measured IC50 for the entry CC(C)C(=O)Oc1c(Cl)cc(C(=O)N2CCC2)cc1S(=O)(=O)Nc1cc(-c2ccccc2)c(F)cc1F : 0.05 to 0.5 µM

Value of measured IC50 for the entry O=C(O)COc1c(Cl)cc(Cl)cc1S(=O)(=O)Nc1cc(-c2ccccc2)ccc1F : 0.5 to 20 µM

Value of measured IC50 for the entry CO[C@@H]1CCN(C(=O)c2cc(Cl)cc(S(=O)(=O)Nc3cc(-c4ccccc4)c(F)cc3F)c2)C1 : > 20 µM

Value of measured IC50 for the entry NC(=O)COc1c(Cl)cc(Cl)cc1S(=O)(=O)Nc1cc(-c2ccccc2)ccc1F : 0.5 to 20 µM

Value of measured IC50 for the entry O=C(NCc1cc(-c2ccccc2)ccc1C(=O)O)c1cc(Cl)cc(Cl)c1 : 0.5 to 20 µM

Value of measured IC50 for the entry COc1ccc(-c2ccccc2)cc1NS(=O)(=O)c1cc(C(=O)O)ccc1Cl : > 20 µM

Value of measured IC50 for the entry O=C(O)c1cc(Cl)c(O)c(S(=O)(=O)Nc2ccc(F)cc2F)c1 : 0.5 to 20 µM

Value of measured IC50 for the entry O=C(O)c1ccc(-c2ccccc2)cc1NS(=O)(=O)c1cc(Br)cs1 : 0.5 to 20 µM

Value of measured IC50 for the entry COc1ccc(-c2ccccc2)cc1NS(=O)(=O)c1cc(Cl)cc(Cl)c1OC : > 20 µM

Value of measured IC50 for the entry COc1ccc(-c2ccccc2)cc1NS(=O)(=O)c1cc(Cl)cc(C(=O)O)c1O : 0.5 to 20 µM

Value of measured IC50 for the entry COc1ccc(-c2ccccc2)cc1N(Cc1ccccc1)S(=O)(=O)c1c(C)c(Cl)cc(Cl)c1OCc1ccccc1 : > 20 µM

Value of measured IC50 for the entry CC(C)(C)OC(=O)COc1c(Cl)cc(C(=O)N2CCC2)cc1S(=O)(=O)Nc1cc(-c2ccccc2)c(F)cc1F : > 20 µM

Value of measured IC50 for the entry Cc1c(CNS(=O)(=O)c2cc(Cl)cc(Cl)c2O)n(C)c2ccccc12 : 0.5 to 20 µM

Value of measured IC50 for the entry COc1ccc(-c2ccccc2)cc1NS(=O)(=O)c1cc(-c2nn[nH]n2)cc(Cl)c1O : 0.5 to 20 µM

Value of measured IC50 for the entry COc1ccc(-c2ccccc2)cc1NS(=O)(=O)c1cccc(C#N)c1 : > 20 µM

Value of measured IC50 for the entry N#Cc1cc(S(=O)(=O)Nc2cc(-c3ccccc3)c(F)cc2F)ccc1F : > 20 µM

Value of measured IC50 for the entry O=C(O)c1ccc(-c2cc3ccccc3s2)cc1NS(=O)(=O)c1cc(Cl)cc(Cl)c1 : 0.5 to 20 µM

Value of measured IC50 for the entry O=C(O)c1occc1NS(=O)(=O)c1cc(Cl)cc(Cl)c1 : 0.5 to 20 µM

Value of measured IC50 for the entry O=C(O)CCc1cc(Cl)c(O)c(S(=O)(=O)Nc2cc(F)cc(F)c2)c1 : > 20 µM

Value of measured IC50 for the entry Cc1cc(C(=O)O)c(NS(=O)(=O)c2cc(Cl)cc(C(F)(F)F)c2)cc1-c1ccccc1 : 0.5 to 20 µM

Value of measured IC50 for the entry O=C(O)c1ccc(-c2cccs2)cc1NS(=O)(=O)c1cc(Cl)cc(Cl)c1 : 0.05 to 0.5 µM

Value of measured IC50 for the entry O=C(O)COc1c(Br)cc(Cl)cc1S(=O)(=O)Nc1cc(-c2ccccc2)ccc1F : 0.5 to 20 µM

Value of measured IC50 for the entry COc1ccc(-c2ccccc2)cc1NS(=O)(=O)c1cccc(-c2nnnn2C)c1 : > 20 µM

Value of measured IC50 for the entry COC(=O)c1cc(Cl)c(OC)c(S(=O)(=O)Nc2cc(-c3ccccc3)ccc2F)c1 : 0.5 to 20 µM
